Target: AMP-activated protein kinase, AMPK (Homo sapiens) (UniProt P54646+O43741+P54619+Q9UGJ0+Q9Y478+Q13131+Q9UGI9)
Assay: AMP-dependent Kinase enzyme assay. An in vitro enzyme assay that detects ADP turnover that is directly proportional to AMPK activity. This uses naive AMPK that is activated during the assay with MK-8722
Assay type: functional
Parameters: scale not given: direction of the effect not stated beside the values
Conditions: 30 µM
result-type: Percent Effect (%)
Report the figure in % without appending any unit label.

- CCS(=O)(=O)N1CCC[C@]2(C(=O)N(C)C)CN(c3ncccn3)C[C@@H]2C1: 3.9
- CCc1nnc2n1CCN(C(=O)c1cc3ccc(F)cc3nc1C)C2: 4.64
- Cc1cnc(C(=O)N(CCN(C)C)Cc2ccc(Cl)cc2)cn1: 5.67
- CCC(O)CN1CCN(C(=O)c2cccn2Cc2ccccc2)CC1 (configuration not stated): -1.72
- Cc1cc(CNc2ccc(C(=O)N3CCCC(C)C3)cc2C)no1 (configuration not stated): 0.477

Exam item: Quick one: Percent Effect for `CC(C)OCCOCc1cccc(NC(=O)NCCn2ccnc2)c1` ?
Marked response: -2.37

Exam item: Quick one: Percent Effect for Cc1cc(NC(=O)CN2CCOC(Cn3cccn3)C2)n(C)n1 (configuration not stated) ?
Marked response: 5.74

Exam item: Quick one: Percent Effect for Cc1ccc(CN2CCCC3(COCCN(Cc4c[nH]nn4)C3)C2)o1 (configuration not stated) ?
Marked response: 3.3

Exam item: Quick one: Percent Effect for Cc1nc(C2(O)CCCNCC2)sc1CCOc1ccc(Cl)cc1 (configuration not stated) ?
Marked response: 17.1

Exam item: Quick one: Percent Effect for CN(Cc1cncnc1)Cc1cn2c(n1)CN(C1CCOC1)CC2 (configuration not stated) ?
Marked response: -0.62

Exam item: Quick one: Percent Effect for `Cc1nnc(NCc2ccccc2Cl)c(C#N)c1C` ?
Marked response: -32.4

Exam item: Quick one: Percent Effect for O=C1COc2c(cccc2C(=O)N2CCCCC2Cn2cccn2)N1 (configuration not stated) ?
Marked response: 2.71

----------
Below, each of the compounds is paired with its reported Percent Effect value.
Target: Arginase-2, mitochondrial (Homo sapiens)
Experiment: in vitro enzyme assay to detect the production of urea directly proportional to the activity of Arginase II; further: in the data most compounds retested in dose-response had high values
Type: functional
Set-up: scale not given: direction of the effect not stated beside the values
Conditions: 33.3 µM
Report the figure in % without appending any unit label.

• O=C1O[C@@H]2CN(Cc3ccccc3)C[C@@H]2N1CCCN1CCOCC1 = -0.521

Exam item: Quick one: Percent Effect for `CN(C)C(=O)CN1C(=O)CCC12CCN(Cc1ccc(F)cc1)CC2` ?
Marked response: 3.2

Exam item: Quick one: Percent Effect for CC(=O)NC1CCCN(C(=O)NCc2cccnc2N(C)C)C1 (configuration not stated) ?
Marked response: 6.65

Exam item: Quick one: Percent Effect for `COCC(=O)N1CCC2(CC1)CCN(Cc1ccccn1)C2=O` ?
Marked response: -3.64

Exam item: Quick one: Percent Effect for `COc1cc(CNCc2ccnc(N3CCOCC3)c2)cc(Cl)c1OC` ?
Marked response: -5.21

Exam item: Quick one: Percent Effect for CC(=O)N1CCC2(CCCN(C(=O)c3ccccc3)C2)C1 (configuration not stated) ?
Marked response: 3.03

Exam item: Quick one: Percent Effect for CC(C)(C)c1cn2nc(N3CCCC3Cn3cncn3)sc2n1 (configuration not stated) ?
Marked response: 6.15

Exam item: Quick one: Percent Effect for `CS(=O)(=O)c1snnc1C1CCN(Cc2ccncc2)CC1` ?
Marked response: -2.09

Exam item: Quick one: Percent Effect for `Cc1cc(C(=O)N2CC[C@@H]3CN(S(C)(=O)=O)CCO[C@@H]3C2)c(C)o1` ?
Marked response: 2.87

Exam item: Quick one: Percent Effect for `CN1CCN(c2cc(CCNC(=O)C3CCC3)nc(C3CC3)n2)CC1` ?
Marked response: -0.232

Exam item: Quick one: Percent Effect for O=C(Cc1ccccc1Cl)N1CCCC(n2cncn2)C1 (configuration not stated) ?
Marked response: 4.51
